| chemical-smiles | melting point |
| --- | --- |
| N=C(N)NN=Cc1ccc(C#CC#Cc2ccccc2)cc1 | 209 to 212 °C |
| N=C(N)NN=Cc1ccc(C#CC#Cc2cccc(Br)c2)cc1 | 196 to 198 °C |
| N=C(N)NN=Cc1ccc(C#Cc2cccc(Cl)c2)cc1 | 213 to 214 °C |
| N=C(N)NN=Cc1ccc(C#Cc2cccc(F)c2)cc1 | 223 to 224 °C |
| N=C(N)NN=Cc1ccc(C#CC#Cc2cccc(F)c2)cc1 | 186 to 190 °C |
| N=C(N)NN=Cc1ccc(C#CC#Cc2ccc(Cl)cc2)cc1 | 202 to 205 °C |
| N=C(N)NN=Cc1ccc(C#CC#Cc2ccccc2Br)cc1 | 217 to 219 °C |
| N=C(N)NN=Cc1ccc(C#Cc2ccc(F)cc2)cc1 | 238 to 239 °C |
| N=C(N)NN=Cc1ccc(C#CC#Cc2ccc(Br)cc2)cc1 | 227 to 230 °C |
| N=C(N)NN=Cc1ccc(C#CC#Cc2ccccc2Cl)cc1 | 207 to 210 °C |
| N=C(N)NN=Cc1ccc(C#Cc2ccc(Br)cc2)cc1 | 242 to 243 °C |
| N=C(N)NN=Cc1ccc(C#Cc2ccccc2Cl)cc1 | 200 to 203 °C |
| N=C(N)NN=Cc1ccc(C#Cc2ccccc2F)cc1 | 189 to 190 °C |
| N=C(N)NN=Cc1ccc(C#Cc2ccccc2Br)cc1 | 188 to 190 °C |
| N=C(N)NN=Cc1ccc(C#CC#Cc2ccc(F)cc2)cc1 | 206 to 210 °C |
| N=C(N)NN=Cc1ccc(C#Cc2cccc(Br)c2)cc1 | 223 to 225 °C |
| N=C(N)NN=Cc1ccc(C#Cc2ccc(Cl)cc2)cc1 | 232 to 234 °C |
| N=C(N)NN=Cc1ccc(C#CC#Cc2ccccc2F)cc1 | 218 to 220 °C |
| N=C(N)NN=Cc1ccc(C#CC#Cc2cccc(Cl)c2)cc1 | 198 to 201 °C |
| Cc1cccc(C#CC#Cc2ccc(C=NNC(=N)N)cc2)c1 | 202 to 204 °C |
| N=C(N)NN=Cc1ccc(C#Cc2ccccc2)cc1 | 225 to 226 °C |

###

- Test system: Staphylococcus aureus CMCC(B)26003
- protocol: Antibacterial MIC, serial dilution
- Assay type: cell-based
- recorded-conditions: Staphylococcus aureus; S. aureus CMCC(B)26003, 24 h, 37 °C; read-out: MIC
Here the recorded MIC is given for each entry.
measured-parameter: MIC (µg/mL)

| compound | unit-annotation | reported-value |
| --- | --- | --- |
| COc1c(N2CCNC(C)C2)c(F)cc2c(=O)c(C(=O)O)cn(C3CC3)c12 (stereo not shown) [Gatifloxacin, reference compound] | µg/mL | 0.125 |
| CCn1cc(C(=O)O)c(=O)c2cc(F)c(N3CCNCC3)cc21 [Norfloxacin, reference compound] | µg/mL | 0.125 |
| N=C(N)NN=Cc1ccc(C#CC#Cc2ccc(F)cc2)cc1 | µg/mL | 64 |
| N=C(N)NN=Cc1ccc(C#CC#Cc2ccc(Br)cc2)cc1 | µg/mL | 128 |
